Test: self-splicing fitness, log relative to wild type (ln ratio); higher = more splicing; Tetrahymena group I intron in knt gene, E. coli kanamycin selection, DiMSum; sequences stand for … in CUCUCU…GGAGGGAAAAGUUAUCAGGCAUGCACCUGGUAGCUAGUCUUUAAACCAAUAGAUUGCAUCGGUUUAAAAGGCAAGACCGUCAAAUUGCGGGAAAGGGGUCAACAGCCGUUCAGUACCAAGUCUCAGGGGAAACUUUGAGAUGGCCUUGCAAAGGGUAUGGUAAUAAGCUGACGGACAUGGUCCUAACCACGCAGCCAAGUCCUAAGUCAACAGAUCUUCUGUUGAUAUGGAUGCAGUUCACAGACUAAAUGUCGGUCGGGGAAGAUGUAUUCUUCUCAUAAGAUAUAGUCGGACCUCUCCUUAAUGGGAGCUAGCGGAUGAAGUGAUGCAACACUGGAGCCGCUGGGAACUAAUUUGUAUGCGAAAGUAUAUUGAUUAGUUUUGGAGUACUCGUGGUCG;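 also: selection with 25 µg/mL kanamycin versus none on LB agar overnight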
Conditions: 37 °C
Returns the class for an entry based on its self-splicing fitness (ln). Class ranges: I: < -2; II: ≥ -2 and < -0.6; III: ≥ -0.6

Example entries begin here.
{"chain": "CUGAAGCAAUAUUACGACAG", "class_assignment": "III"}
{"chain": "UUUUAGCAAUAUUACGACUG", "class_assignment": "III"}

Continue with the sequence presented below.
Dear colleague, I would appreciate it if you could identify the bin for GCCAAGCAAUAUUACGCUUC and reply at your convenience. II

---

Assay: self-splicing fitness, log relative to wild type (ln ratio); higher = more splicing; Tetrahymena group I intron in knt gene, E. coli kanamycin selection, DiMSum; sequences stand for … in CUCUCU…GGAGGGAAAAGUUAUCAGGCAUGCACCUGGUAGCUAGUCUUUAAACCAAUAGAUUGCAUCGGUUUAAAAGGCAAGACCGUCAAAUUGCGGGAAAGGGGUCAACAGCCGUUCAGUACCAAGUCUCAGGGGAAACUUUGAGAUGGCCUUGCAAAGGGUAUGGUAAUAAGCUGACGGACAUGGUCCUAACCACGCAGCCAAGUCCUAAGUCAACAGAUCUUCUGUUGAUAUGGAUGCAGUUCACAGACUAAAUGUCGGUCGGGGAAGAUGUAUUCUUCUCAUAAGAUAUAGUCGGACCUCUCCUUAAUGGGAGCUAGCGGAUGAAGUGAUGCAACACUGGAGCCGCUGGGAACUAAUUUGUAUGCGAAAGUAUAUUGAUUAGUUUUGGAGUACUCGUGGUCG
Details: 37 °C
Lab note: compare self-splicing fitness (ln) against -0.9. Equal or greater, write Yes. Smaller, write No.

Example entries begin here.
{"chain": "AUAAAGCAAUAUUACGUCCA", "class_assignment": "Yes"}
{"chain": "AGGCAGCAAUAUUACGAUAG", "class_assignment": "No"}
{"chain": "GCAGAGCAAUAUUACGUACA", "class_assignment": "Yes"}

Quick check, self-splicing fitness (ln) >= -0.9? CUACAGCAAUAUUACGUAGA No

Quick check, self-splicing fitness (ln) >= -0.9? AGGCAGCAAUAUUACGUAUG No

Quick check, self-splicing fitness (ln) >= -0.9? CAGGAGCAAUAUUACGAGGA No

Quick check, self-splicing fitness (ln) >= -0.9? UGAGAGCAAUAUUACGGCAA No

Quick check, self-splicing fitness (ln) >= -0.9? UUAAAGCAAUAUUACGUACA Yes

Quick check, self-splicing fitness (ln) >= -0.9? AGGUAGCAAUAUUACGCAUA Yes

Quick check, self-splicing fitness (ln) >= -0.9? CUUUAGCAAUAUUACGCAGU No

Quick check, self-splicing fitness (ln) >= -0.9? GAGUAGCAAUAUUACGGCGU Yes

Quick check, self-splicing fitness (ln) >= -0.9? UCUCAGCAAUAUUACGCAGU No

Quick check, self-splicing fitness (ln) >= -0.9? UUGAAGCAAUAUUACGGGUU No

Quick check, self-splicing fitness (ln) >= -0.9? CAAAAGCAAUAUUACGAGUU No

Quick check, self-splicing fitness (ln) >= -0.9? AAGAAGCAAUAUUACGUUUA No

Quick check, self-splicing fitness (ln) >= -0.9? AUGGAGCAAUAUUACGGUAG No

Quick check, self-splicing fitness (ln) >= -0.9? GCAUAGCAAUAUUACGGUGA Yes

Quick check, self-splicing fitness (ln) >= -0.9? UAGGAGCAAUAUUACGGAGG No

---

Experiment: self-splicing fitness, log relative to wild type (ln ratio); higher = more splicing; Tetrahymena group I intron in knt gene, E. coli kanamycin selection, DiMSum; sequences stand for … in CUCUCU…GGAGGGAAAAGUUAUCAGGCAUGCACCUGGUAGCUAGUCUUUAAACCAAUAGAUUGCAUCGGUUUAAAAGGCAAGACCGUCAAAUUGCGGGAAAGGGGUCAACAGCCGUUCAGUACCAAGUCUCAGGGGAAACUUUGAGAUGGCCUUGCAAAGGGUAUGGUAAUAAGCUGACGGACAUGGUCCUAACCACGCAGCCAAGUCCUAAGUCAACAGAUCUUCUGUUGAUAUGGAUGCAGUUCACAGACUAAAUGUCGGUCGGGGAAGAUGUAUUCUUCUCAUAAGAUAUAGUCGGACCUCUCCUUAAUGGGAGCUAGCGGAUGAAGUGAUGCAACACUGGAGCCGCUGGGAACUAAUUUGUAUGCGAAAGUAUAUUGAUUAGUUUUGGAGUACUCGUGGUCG
Conditions: 37 °C
Lab note: compare self-splicing fitness (ln) against -1. Equal or greater, write criterion met. Smaller, write criterion not met.

Example entries begin here.
{"chain": "CUUAAGCAAUAUUACGAGAG", "class_assignment": "criterion not met"}
{"chain": "UAGCAGCAAUAUUACGGUGG", "class_assignment": "criterion not met"}
{"chain": "ACAGAGCAAUAUUACGUCCA", "class_assignment": "criterion not met"}
{"chain": "ACACAGCAAUAUUACGCCCC", "class_assignment": "criterion met"}
{"chain": "CUCCAGCAAUAUUACGCCAU", "class_assignment": "criterion not met"}

Quick check, self-splicing fitness (ln) >= -1? ACAAAGCAAUAUUACGGCUU criterion met

Quick check, self-splicing fitness (ln) >= -1? UCCCAGCAAUAUUACGCCUU criterion not met

Quick check, self-splicing fitness (ln) >= -1? CUUUAGCAAUAUUACGUCAC criterion met

Quick check, self-splicing fitness (ln) >= -1? CUGGAGCAAUAUUACGUGUA criterion not met

---

Catalogue of sequences with associated self-splicing fitness (ln)
Assay: self-splicing fitness, log relative to wild type (ln ratio); higher = more splicing; Tetrahymena group I intron in knt gene, E. coli kanamycin selection, DiMSum; sequences stand for … in CUCUCU…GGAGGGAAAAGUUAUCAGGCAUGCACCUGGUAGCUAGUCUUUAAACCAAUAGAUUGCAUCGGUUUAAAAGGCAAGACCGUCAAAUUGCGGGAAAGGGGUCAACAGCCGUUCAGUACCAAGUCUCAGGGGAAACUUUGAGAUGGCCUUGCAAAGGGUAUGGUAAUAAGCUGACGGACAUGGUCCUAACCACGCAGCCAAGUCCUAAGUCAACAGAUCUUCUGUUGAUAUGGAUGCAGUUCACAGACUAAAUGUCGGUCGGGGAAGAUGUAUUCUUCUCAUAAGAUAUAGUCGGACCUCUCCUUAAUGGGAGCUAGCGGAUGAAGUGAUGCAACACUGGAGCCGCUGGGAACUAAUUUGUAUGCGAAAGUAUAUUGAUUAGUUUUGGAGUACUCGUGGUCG
Details: 30 °C
Give only the figure.

Take a look at these entries with their results.
{"chain": "AACUAGCAAUAUUACGAACG", "self-splicing fitness (ln)": -0.824}
{"chain": "ACCAAGCAAUAUUACGCCGC", "self-splicing fitness (ln)": -3.04}
{"chain": "UGCAAGCAAUAUUACGACUU", "self-splicing fitness (ln)": -2.34}
{"chain": "AUACAGCAAUAUUACGAGUA", "self-splicing fitness (ln)": -1.76}
{"chain": "UAGUAGCAAUAUUACGGCAA", "self-splicing fitness (ln)": -0.858}
{"chain": "UGAUAGCAAUAUUACGAUAA", "self-splicing fitness (ln)": -2.12}

self-splicing fitness (ln) reading for GAAUAGCAAUAUUACGAACA : -0.419

self-splicing fitness (ln) reading for CGACAGCAAUAUUACGAGGU : -3.14

---

Assay: self-splicing fitness, log relative to wild type (ln ratio); higher = more splicing; Tetrahymena group I intron in knt gene, E. coli kanamycin selection, DiMSum; sequences stand for … in CUCUCU…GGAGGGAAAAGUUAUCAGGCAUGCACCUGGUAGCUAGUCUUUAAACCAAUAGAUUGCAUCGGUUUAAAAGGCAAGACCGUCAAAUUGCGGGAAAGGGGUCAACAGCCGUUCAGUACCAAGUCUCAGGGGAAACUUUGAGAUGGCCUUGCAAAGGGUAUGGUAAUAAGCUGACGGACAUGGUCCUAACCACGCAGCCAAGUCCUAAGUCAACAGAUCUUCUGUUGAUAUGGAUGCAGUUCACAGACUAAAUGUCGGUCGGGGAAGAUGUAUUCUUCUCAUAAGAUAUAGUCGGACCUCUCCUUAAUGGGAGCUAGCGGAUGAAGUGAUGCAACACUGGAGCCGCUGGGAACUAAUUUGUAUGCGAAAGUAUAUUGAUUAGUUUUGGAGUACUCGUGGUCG
Conditions: 30 °C
Lab note: compare self-splicing fitness (ln) against -0.8. Equal or greater, write T. Smaller, write F.

Example entries begin here.
{"chain": "CAGAAGCAAUAUUACGUGCU", "class_assignment": "F"}
{"chain": "GCCUAGCAAUAUUACGUAGG", "class_assignment": "F"}
{"chain": "CUGCAGCAAUAUUACGUCCG", "class_assignment": "T"}
{"chain": "GCAGAGCAAUAUUACGCCGU", "class_assignment": "F"}
{"chain": "UUUAAGCAAUAUUACGUACA", "class_assignment": "T"}
{"chain": "UUAUAGCAAUAUUACGACUU", "class_assignment": "F"}

Continue with the sequence presented below.
Quick check, self-splicing fitness (ln) >= -0.8? UGGGAGCAAUAUUACGUAGA F
